tested on: COLO 205 colon; experiment: NCI-60 one-dose screen, 48 h (100 = growth as untreated, 0 = no growth, -100 = all killed); conditions: 10 µM unless noted
Compounds without any hit were thinned out: in the full panel of roughly 83,000, 20% have a hit.
MEASURED METRIC: growth (%)
A number alone suffices; assume %.

Recorded growth, per entry:
O=[N+]([O-])c1cnc[nH]1 : 119
Cn1cc(-c2csc(-c3cn(CCCCN4CCCCC4)c4ccccc34)n2)c2cccnc21 : -73.7

# context switch: different compound, same growth
Query: What value of measured growth is listed for `Cc1ccc(S(=O)(=O)F)cc1C(=O)O` ?
Reply: 103

---

# reported growth; entries follow
tested on: SR leukemia; assay: NCI-60 one-dose screen, 48 h (100 = growth as untreated, 0 = no growth, -100 = all killed); conditions: 10 µM unless noted
Compounds without any hit were thinned out: in the full panel of roughly 83,000, 20% have a hit.
A number alone suffices; assume %.

Recorded growth, per entry:
O=[N+]([O-])CC(O)C(Cl)(Cl)Cl (stereo not drawn) : 98.5
O=C1N[C@@H]2[C@@H](O)[C@@H](O)[C@H](O)C[C@H]2c2cc3c(c(O)c21)OCO3 : 6.14

Query: // fetch SR leukemia growth for CCC1CC(O)c2c(O)c3c(c(O)c2C1O)C(=O)c1cccc(O)c1C3=O (stereo not drawn) (tested in a mixture with another compound)
Reply: -0.491

---

tested on: HS 578T breast; assay: NCI-60 one-dose screen, 48 h (100 = growth as untreated, 0 = no growth, -100 = all killed); conditions: 10 µM unless noted
About 83,000 compounds went through this panel and 20% of them were active in at least one assay; those are over-represented in the sample as a whole.
# reported growth; entries follow
A number alone suffices; assume %.

CO[C@H]1CC[C@@]2(C)C(=CC[C@@H]3[C@@H]2CC[C@]2(C)C(=O)C(=O)C[C@@H]32)C1 : 92.6
O=c1[nH]cc(N(CCCl)CCCl)c(=O)[nH]1 : 87.8

Query: What value of measured growth is listed for `COC(=O)[C@@H](C)C[C@H](Cc1ccc(F)cc1)NC(=O)c1csc([C@@H](C[C@H](C(C)C)N(C)C(=O)[C@@H](NC(=O)[C@H]2CCCCN2C)C2CC2)OC(C)=O)n1` ?
Reply: 41.1

---

Tested on: LOX IMVI melanoma
Experiment: NCI-60 one-dose screen, 48 h (100 = growth as untreated, 0 = no growth, -100 = all killed)
Conditions: 10 µM unless noted
Procedure: Growth inhibition of the LOX IMVI human tumor cell line is measured as a screen for anti-cancer activity. Cells are grown in 96 well plates and exposed to the test compound for 48 hours. Compounds are tested at a single concentration, which is 10^-5 M for most compounds. The reported endpoint is percent growth (GI% or GIPRCNT), where numbers from 0 - 100% represent growth inhibition, and numbers from -100% - 0 represent cell death. For example, a value of 40 represents 60% growth inhibition. […]
The panel holds about 83,000 compounds, 20% with a hit somewhere; the sample as a whole holds those more often.
Assign Y whenever growth does not fall below 90%; assign N whenever it does.

Solved cases (5 shown):
COC(=O)[C@@H](C)C[C@H](Cc1ccc(F)cc1)NC(=O)c1csc([C@@H](C[C@H](C(C)C)N(C)C(=O)[C@@H](NC(=O)[C@H]2CCCCN2C)C2CC2)OC(C)=O)n1 : N
C/C(Cc1ccc(Cl)cc1)=C(\c1ccc(OCCN2CCOCC2)cc1)c1ccc(OC(=O)Cc2ccccc2)cc1 : Y
COc1ccc(/C=C/c2cc(OC)c(OC)c(OC)c2)cc1NC(=O)/C=C/c1ccc(F)cc1 : N
O=C(N/N=C/c1ccc(N(CCCl)CCCl)cc1)c1cccc2ccccc12 : N
O=C1C(=Cc2cn(Cc3ccccc3)c3ccccc23)C(=O)N(Cc2ccccc2)C(=O)N1Cc1ccccc1 : N

Query: In plain terms: is recorded growth at least 90% for `COC(=O)[C@@H](C)C[C@H](Cc1ccc(F)cc1)NC(=O)c1csc([C@@H](C[C@H](C(C)C)N(C)C(=O)[C@@H](NC(=O)[C@H]2CCCCN2C)C(C)C)OC(C)=O)n1` ?
Reply: N

Query: Entry `CCOP(=O)(Cc1ccc(C#N)cc1)OCC` please
Reply: Y

---

# reported growth; entries follow
test system: EKVX NSCLC; test: NCI-60 one-dose screen, 48 h (100 = growth as untreated, 0 = no growth, -100 = all killed); conditions: 10 µM unless noted
About 83,000 compounds went through this panel and 20% of them were active in at least one assay; those are over-represented in the sample as a whole.
A number alone suffices; assume %.

Recorded growth, per entry:
COc1ccc2c(c1)c(-c1nc(-c3cn(C)c4ncccc34)cs1)cn2CCN1CCOCC1 : 61.1
O=C(N/N=C\c1ccc(N(CCCl)CCCl)cc1)c1cccc([N+](=O)[O-])c1 : 88.6
CC[C@H](C)[C@H](NC(=O)[C@H]1CCCCN1C)C(=O)N(C)[C@H](CC(=O)c1nc(C(=O)N[C@@H](Cc2ccccc2)C[C@H](C)C(=O)O)cs1)C(C)C : 91.5
Cc1cc(N(CCCl)CCCl)ccc1C=Nc1ccccc1-c1ccccc1 : 101
COc1cc(/C=C/[N+](=O)[O-])c([N+](=O)[O-])cc1OC : 65.9
COC(=O)[C@@H](C)C[C@H](Cc1ccccc1)NC(=O)c1csc([C@@H](C[C@H](C(C)C)N(C)C(=O)[C@@H](NC(=O)C23CC(NC(C)=O)(C2)C3)C2CC2)OC(C)=O)n1 : 78.8

Query: What value of measured growth is listed for `CNC(=O)Oc1ccc(N(C)C)cc1C(C)C` ?
Reply: 95.5

Query: Entry `O=NN1CCCc2cccc(O)c21` please
Reply: 69.4

---

test system: CAKI-1 renal; assay: NCI-60 one-dose screen, 48 h; conditions: 10 µM unless noted
Compounds without any hit were thinned out: in the full panel of roughly 83,000, 20% have a hit. Calls of active or inactive are those of the source. Rule for the calls: active = growth percent below 10; inactive = the rest.
Select the correct class. Options are active, inactive and nothing else.

Solved cases (8 shown):
NC(CCl)CCl : inactive
N/C(=N/N=C/c1ccncc1)N[N+](=O)[O-] : inactive
CCOC(=O)C(Cc1ccc(N(CCCl)CCCl)cc1)NC(=O)C(CC(C)C)NC(C)=O (configuration not stated) : active
O=C1Nc2ccccc2C2c3cccn3-c3ccccc3CN12 (configuration not stated) : inactive
COC1CC2c3ccccc3C1C(C)=[N+]2C (configuration not stated) : inactive
COc1cccc(/C=C/[N+](=O)[O-])c1 : inactive
O=C(CC1(O)C(=O)Nc2ccc(Br)cc21)c1ccc(C(=O)NCC2CCC3(CC2)OOC2(CCCCC2)OO3)cc1 (configuration not stated) : active
CCCOC(=O)N[C@H]1CCc2c(Br)c(OC)c(OC)c(OC)c2-c2ccc(SC)c(=O)cc21 : inactive

Let us examine a further case.
Query: What did the test return for `CC(=O)OC[C@]1(C)C=C2C(=O)[C@](C)(O)C3(CC3)C(C)=C2[C@H]1O` ?
Reply: active

---

tested on: HCT-116 colon; assay: NCI-60 one-dose screen, 48 h; conditions: 10 µM unless noted
Compounds without any hit were thinned out: in the full panel of roughly 83,000, 20% have a hit. Active and inactive are the calls of the source. Rule for the calls: active = growth percent below 10; inactive = the rest.
Select the correct class. Options are yes for active, no for inactive and nothing else.

Solved cases (8 shown):
Fc1cccc(NCOOC2(OOCNc3cccc(F)c3)CCCCC2)c1 : no
CC[C@]12C=CCN3CC[C@@]4(c5ccc(OC)cc5N(C)[C@H]4[C@@](O)(C(=O)OC)[C@@H]1OC(=O)CCCC[P+](c1ccccc1)(c1ccccc1)c1ccccc1)[C@@H]32 : yes
[Au+].[N-]=C=O.c1ccc(CN2[CH-]N(Cc3ccccc3)C(c3ccccc3)=C2c2ccccc2)cc1 : no
O=C(CC1(O)C(=O)N(Cc2ccccc2)c2ccc(Br)cc21)c1ccc(C(=O)NCC2CCC3(CC2)OOC2(CCCCC2)OO3)cc1 (stereo unspecified) : no
C[C@@H]1O[C@@H](O[C@H]2C[C@@H](O)[C@]3(CO)C4C(CC[C@]3(O)C2)[C@@]2(O)CC[C@H](C3=CC(=O)OC3)[C@@]2(C)C[C@H]4O)[C@H](O)[C@H](O)[C@H]1O (stereo partly specified) : yes
CCCCCCCOC(C(=O)OCCN(CC)CC)(c1ccccc1)c1ccccc1 : no
C=C1C(=O)O[C@H]2[C@H]1CC/C(COC(=O)C(=O)c1cn(Cc3ccccc3)c3ccccc13)=C\CC[C@@]1(C)O[C@@H]21 : yes
COC(=O)[C@H](Cc1c[nH]c2ccccc12)NC(=O)[C@@H](OC)[C@@H]1Cc2cc3cc(OC4CC(OC5CC(O)C(O)C(C)O5)C(O)C(C)O4)c(C)c(O)c3c(O)c2C(=O)[C@H]1OC1CC(OC2CC(OC3CC(C)(O)C(O)C(C)O3)C(O)C(C)O2)C(O)C(C)O1 (stereo partly specified) : yes

Query: What did the test return for `Nc1ccc(-c2nc3cc(F)ccc3[se]2)cc1F` ?
Reply: no

Query: Entry `CC[S][Hg][Cl]` please
Reply: no

Query: Entry O=C1C=C2C(=CCOC2O)O1 (stereo unspecified) please
Reply: yes

Query: Entry `O=C1C(=Cc2cn(Cc3ccccc3)c3ccccc23)C(=O)N(Cc2ccccc2)C(=O)N1Cc1ccccc1` please
Reply: no

Query: Entry `O=C(Nc1ccc(Br)cc1)c1cc(Br)cc(Br)c1O` please
Reply: yes

Query: Entry `C#Cc1ccc2c(c1)C(c1ccccc1)=NCC(=O)N2C` please
Reply: no

Query: Entry `CCn1cnc2c(Nc3cccc(Cl)c3)nc(N[C@@H]3CCCC[C@@H]3N)nc21` please
Reply: yes
